Let's look at some compounds and their measured composite z-score.
experimental.system: Neurogenic locus notch homolog protein 3 (Homo sapiens)
run.description: small molecules binding NOTCH3 protein – biochemical, 635/667 nm fluorescence, primary screen (AID 1096)
study.conditions: small-molecule microarray, 635 nm fluorescence, higher = more signal
# answer = number (no unit)

compound | experimental.system | result.value
C=CC[C@@]1(C(=O)OC)N=C(c2ccc(OCCCO)cc2)O[C@@H]1c1ccccc1CN=[N+]=[N-] | Neurogenic locus notch homolog protein 3 (Homo sapiens) | -0.159
CCOC(=O)N1C(c2ccc(OCCCO)cc2)=NC(C(=O)OC)N1C(=O)OCC (stereo not drawn) | Neurogenic locus notch homolog protein 3 (Homo sapiens) | 1.09
COc1cc(CO)cc(I)c1O[C@H]1C=C(C(=O)NCCO)C[C@@H](N(CCc2cccc(F)c2)C(=O)CCC2CCCC2)[C@@H]1O | Neurogenic locus notch homolog protein 3 (Homo sapiens) | 0.922

Exam item: Query (compound): O=C(NCC(O)CO)[C@@]1(Cc2ccccc2)N=C(c2ccc(OCCCO)cc2)O[C@H]1c1ccccc1 (stereo partly drawn) ; field requested: composite z-score
Marked response: -0.376

Exam item: Also [N-]=[N+]=NCc1ccccc1C[C@]1(C(=O)N2CCOCC2)N=C(c2ccc(OCCCO)cc2)O[C@H]1c1ccccc1 , if possible.
Marked response: 0.673

Exam item: Subsequent entry: O=C1C2C=CC(C(O)c3ccc(-c4ccccc4)s3)N(Nc3ccccc3F)C2C(=O)N1c1ccccc1 (stereo not drawn)
Marked response: 1.02

Exam item: CCCC[C@H]1OB(O)C[C@H]2C1=C(C)Cn1c(=O)n(-c3ccccc3)c(=O)n12 , same question.
Marked response: 0.37

Exam item: Next: O=C1OCC=C[C@H]2OC34C=CCN(c5ccc(Cl)cc5)C(=O)[C@H]3N(CCCO)C(=O)[C@@H]4[C@@H]12 (stereo partly drawn)
Marked response: -0.478

====

experimental.system: Neurogenic locus notch homolog protein 2 (Homo sapiens) (UniProt Q04721)
Sequence (Q04721 whole entry, looked up): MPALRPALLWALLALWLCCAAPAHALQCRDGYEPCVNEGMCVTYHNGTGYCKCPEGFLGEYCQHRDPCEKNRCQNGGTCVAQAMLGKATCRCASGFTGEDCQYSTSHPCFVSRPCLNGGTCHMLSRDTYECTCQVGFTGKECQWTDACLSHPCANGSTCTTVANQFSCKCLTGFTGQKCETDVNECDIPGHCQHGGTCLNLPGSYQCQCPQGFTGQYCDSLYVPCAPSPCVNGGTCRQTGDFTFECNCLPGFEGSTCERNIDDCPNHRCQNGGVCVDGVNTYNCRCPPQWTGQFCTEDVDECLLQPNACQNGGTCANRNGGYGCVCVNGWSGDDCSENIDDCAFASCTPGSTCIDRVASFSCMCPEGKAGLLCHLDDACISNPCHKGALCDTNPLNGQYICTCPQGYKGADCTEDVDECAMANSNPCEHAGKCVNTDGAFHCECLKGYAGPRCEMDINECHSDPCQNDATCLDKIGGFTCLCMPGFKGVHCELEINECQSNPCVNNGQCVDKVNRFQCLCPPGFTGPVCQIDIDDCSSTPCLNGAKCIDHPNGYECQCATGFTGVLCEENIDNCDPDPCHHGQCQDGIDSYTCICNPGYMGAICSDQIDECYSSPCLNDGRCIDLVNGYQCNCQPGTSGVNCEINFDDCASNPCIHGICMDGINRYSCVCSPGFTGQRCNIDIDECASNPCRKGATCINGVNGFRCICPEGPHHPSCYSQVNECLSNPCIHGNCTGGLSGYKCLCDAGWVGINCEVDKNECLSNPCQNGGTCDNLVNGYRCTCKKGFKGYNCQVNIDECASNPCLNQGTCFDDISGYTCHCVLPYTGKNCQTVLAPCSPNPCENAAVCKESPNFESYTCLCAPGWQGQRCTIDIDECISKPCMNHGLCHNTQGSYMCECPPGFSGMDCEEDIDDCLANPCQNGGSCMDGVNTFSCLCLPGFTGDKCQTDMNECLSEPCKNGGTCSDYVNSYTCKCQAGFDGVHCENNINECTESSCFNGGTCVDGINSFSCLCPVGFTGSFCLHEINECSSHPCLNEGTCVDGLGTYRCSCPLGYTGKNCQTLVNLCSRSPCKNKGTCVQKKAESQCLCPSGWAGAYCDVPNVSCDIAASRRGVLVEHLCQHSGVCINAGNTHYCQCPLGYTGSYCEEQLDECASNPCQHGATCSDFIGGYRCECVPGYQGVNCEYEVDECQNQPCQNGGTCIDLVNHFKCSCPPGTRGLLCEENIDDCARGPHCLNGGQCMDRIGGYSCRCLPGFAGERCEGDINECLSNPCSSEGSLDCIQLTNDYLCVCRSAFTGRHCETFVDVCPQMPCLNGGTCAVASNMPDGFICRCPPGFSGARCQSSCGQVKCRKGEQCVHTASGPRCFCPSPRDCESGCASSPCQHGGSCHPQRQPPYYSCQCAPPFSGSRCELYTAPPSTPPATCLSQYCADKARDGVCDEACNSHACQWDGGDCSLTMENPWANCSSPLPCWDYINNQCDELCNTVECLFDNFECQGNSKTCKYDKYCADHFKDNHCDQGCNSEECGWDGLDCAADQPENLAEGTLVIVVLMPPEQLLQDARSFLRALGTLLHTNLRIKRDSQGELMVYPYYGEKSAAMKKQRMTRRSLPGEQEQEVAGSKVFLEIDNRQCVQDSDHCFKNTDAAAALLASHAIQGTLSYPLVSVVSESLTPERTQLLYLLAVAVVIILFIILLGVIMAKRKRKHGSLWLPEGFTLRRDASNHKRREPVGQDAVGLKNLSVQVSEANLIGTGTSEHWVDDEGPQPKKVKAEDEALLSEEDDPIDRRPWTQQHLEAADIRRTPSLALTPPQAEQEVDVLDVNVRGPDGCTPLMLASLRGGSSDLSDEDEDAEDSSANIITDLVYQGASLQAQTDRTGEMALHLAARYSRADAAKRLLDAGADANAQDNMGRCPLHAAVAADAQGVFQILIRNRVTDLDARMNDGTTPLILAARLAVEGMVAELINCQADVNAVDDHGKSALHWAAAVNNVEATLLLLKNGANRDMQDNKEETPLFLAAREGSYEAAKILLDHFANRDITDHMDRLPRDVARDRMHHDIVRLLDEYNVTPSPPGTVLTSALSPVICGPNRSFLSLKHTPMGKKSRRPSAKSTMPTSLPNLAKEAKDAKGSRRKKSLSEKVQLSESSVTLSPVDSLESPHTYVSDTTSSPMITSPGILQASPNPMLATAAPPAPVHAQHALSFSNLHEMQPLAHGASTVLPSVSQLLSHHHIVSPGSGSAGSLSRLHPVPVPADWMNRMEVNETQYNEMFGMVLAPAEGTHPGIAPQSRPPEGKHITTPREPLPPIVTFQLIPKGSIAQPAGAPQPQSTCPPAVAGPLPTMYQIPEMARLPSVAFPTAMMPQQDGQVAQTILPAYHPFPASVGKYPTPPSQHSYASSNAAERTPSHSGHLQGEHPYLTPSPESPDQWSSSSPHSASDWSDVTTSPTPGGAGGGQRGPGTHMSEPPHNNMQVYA
run.description: small molecules binding Notch2 protein – biochemical, small-molecule microarray, 635 nm fluorescence, stem cell growth factors, primary screen (AID 1073)
study.conditions: higher = more signal
Below: a set of entries, each annotated with reported composite z-score.
Answer as a number with no unit attached.

Here are 2 compounds together with their reported answers.
compound | composite z-score
Cc1ccc(C(C)CC(O)C2C=CC3C(=O)NC(=O)C3N2Nc2ccccn2)o1 (centres undefined) | -0.0116
CN1C(=O)C2C=CC(C(O)C3=C[C@H]4C[C@@H](C3)C4(C)C)N(Nc3ccc([N+](=O)[O-])cc3[N+](=O)[O-])C2C1=O (some centres undefined) | 1.66

Exam item: Which composite z-score is reported with Neurogenic locus notch homolog protein 2 (Homo sapiens) (UniProt Q04721) for this entry: Cc1ccc(N2C(=O)c3ccccc3[C@](C)(C(=O)NCCN3CCOCC3)[C@@H]2c2ccc(CO)cc2)nc1 ?
Marked response: -1.41

Exam item: Another: CN1C(=O)C2C=CC(C(O)C(C)(C)C)N(Nc3ccccc3)C2C1=O (centres undefined)
Marked response: 0.0262

====

run.description: probe aLAP1 signal on lysate-treated microarray – cell lysate, small-molecule microarray, COS7 lysate, primary screen (AID 1124);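 also: lysate comes from COS7 cells expressing LAP1 and is applied at 0.3 µg/mL; score merges spot fluorescence near 667 nm with signal-to-noise over triplicate slides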
study.conditions: probe aLAP1, fluorescence, higher = more signal
composite z-score values by entry
# respond with the number and nothing more

Would you please look over these solved cases?
compound | readout.label | result.value
CC(C)(C)OC(=O)CC[C@@]1(C(N)=O)N=C(c2ccc(OCCCO)cc2)O[C@@H]1c1ccccc1N=[N+]=[N-] | composite z-score | -0.293
CC(C)C(CO)N1C(=O)[C@@H]2[C@H]3C(=O)OCC=C[C@H]3OC23C=CCN(c2ccc4ccccc4c2)C(=O)[C@@H]13 (some centres undefined) | composite z-score | 0.42

Exam item: Record request: composite z-score value, item O=C1OCC=C[C@H]2OC34C=CCN(CCN5CCOCC5)C(=O)[C@H]3N(CCCCCCO)C(=O)[C@@H]4[C@@H]12 (some centres undefined)
Marked response: 0.55

Exam item: Proceed to O=C1c2ccccc2[C@@]2(Cc3ccccc3N(Cc3ccccc3)C2=O)[C@H](c2ccc(CO)cc2)N1Cc1ccccc1C(F)(F)F
Marked response: -0.381

Exam item: What about this compound? CS(=O)(=O)CCOC(=O)C1=CC(c2ccc(CO)cc2)=CC(c2cccs2)N(Cc2cccc(OC(F)(F)F)c2)C=C1C(=O)OCCS(C)(=O)=O (centres undefined)
Marked response: 0.442

====

experimental.system: Fibroblast growth factor 10 (Homo sapiens) (UniProt O15520)
Sequence (O15520 whole entry, looked up): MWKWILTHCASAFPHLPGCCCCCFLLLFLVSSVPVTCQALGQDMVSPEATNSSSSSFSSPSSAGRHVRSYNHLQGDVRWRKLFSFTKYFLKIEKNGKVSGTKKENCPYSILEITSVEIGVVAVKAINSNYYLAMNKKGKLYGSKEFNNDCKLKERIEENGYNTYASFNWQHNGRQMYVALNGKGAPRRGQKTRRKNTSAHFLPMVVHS
run.description: compounds binding fibroblast growth factor 10 – biochemical, small-molecule microarray, 635 nm fluorescence, primary screen (AID 1102)
study.conditions: FGF10 binding, fluorescence 635 nm, higher = more signal
Overview of recorded composite z-score for various compounds
# respond with the number and nothing more

Consider the following illustrative entries.
compound | composite z-score
COC(=O)c1c2oc(c1C(=O)OC)C(=O)N[C@H](Cc1ccccc1)Cn1nncc1C1(CCCCC1)NC(=O)N[C@H](CO)CC2 | 0.0778
C=C(CCCC)C(=O)CC[C@H](OC(=O)c1ccccc1-c1ccccc1C(=O)O)c1ccc(CO)o1 | 1.51
CCCCN1CC=CC23O[C@@H]4/C=C\CCCOC(=O)C4[C@H]2C(=O)N(C(C)CO)[C@@H]3C1=O (stereo partly drawn) | -0.319

Exam item: Given COCCCNC(=O)[C@@]1(C)c2ccccc2C(=O)N(Cc2ccccc2)[C@H]1c1ccc(CO)cc1 , state its recorded composite z-score.
Marked response: -0.398

Exam item: Consider next the compound [N-]=[N+]=NCc1ccccc1[C@H]1OC(c2ccc(OCCCO)cc2)=N[C@@]1(Cc1ccccc1)C(=O)NCC(O)CO (stereo partly drawn) in the same way.
Marked response: 0.782

Exam item: Item: CCOC1=C2C(c3ccc(C)cc3)N(S(=O)(=O)c3ccc(C)cc3)CC2n2c(=O)n(-c3ccccc3)c(=O)n2C1 (stereo not drawn)
Marked response: 1.04

Exam item: Try this compound next: CN1C(=O)C2C(C1=O)C1C=C(c3ccc(CO)cc3)C2C(C2CC2)N1Cc1sc2ccccc2c1Cl (stereo not drawn)
Marked response: 1.25

Exam item: Next up: CCOC(=O)C1=C[C@@H](C(C)(C)C)N(S(=O)(=O)c2ccc(C)cc2)[C@H]1c1ccc(Cl)c(Cl)c1
Marked response: 0.733

====

run.description: FRG1 expression reporter modulators in myotubes – cell-based, C2C12 myotubes, firefly/Renilla luciferase, luminescence, FRG1 inhibition for FSHD, primary screen (AID 1084)
study.conditions: FRG1 promoter luciferase, higher = more signal, called active from +8 up or from −8 down
readout.label: z-score
Number, no unit, nothing else.

compound | z-score
CCCC[C@@H]1C[C@H]1[C@@H](NC(=O)c1ccco1)c1ccccc1 | -0.192

Exam item: Fill blank: measured z-score of the compound CN1C(=O)C2C(C1=O)C1C=C(c3ccc(CO)cc3)C2C(C2CC2)N1Cc1cc2c(cc1Br)OCO2 (centres undefined) is ____.
Marked response: -4.12

Exam item: C=CCC(OC(C)=O)[C@@H]1[C@@H](N(Cc2ccc(-c3cccc(C(F)(F)F)c3)o2)C(=O)Cc2ccc(OC)cc2)c2cc(OCCCO)ccc2N1C(=O)Cc1ccc(OC)cc1 (some centres undefined) , same question.
Marked response: 0.0712

Exam item: Next: CC(=O)NCCCC[C@@H]1NC(=O)[C@@H]2C[C@H](C(=O)NCc3ccc(F)cc3)[C@H](c3ccc(O)cc3)N2C1=O
Marked response: -0.0693

====

Test system: wheat germ agglutinin (Triticum aestivum), Alexa647-labelled
run.description: Alexa647-WGA lectin binding to printed small molecules – biochemical, small-molecule microarray, 635/667 nm fluorescence, artefact control for SMM control-protein annotation, profiling panel (AID 1140);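 also: score merges 667 nm feature emission with signal to noise over triplicate slides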
study.conditions: WGA-A647 binding, 635 nm fluorescence, higher = more signal
Record Condition met whenever composite z-score is at 0.3 or higher; record Condition not met when lower.

Answered examples (3):
compound | cat
O=C1OCCC/C=C\[C@H]2OC34C=CCN(CCN5CCOCC5)C(=O)[C@H]3N(CCO)C(=O)[C@@H]4C12 (stereo partly drawn) | Condition not met
O=C1OCC=C[C@H]2OC34C=CCN(CCN5CCOCC5)C(=O)[C@H]3N(CCCCCCO)C(=O)[C@@H]4[C@@H]12 (stereo partly drawn) | Condition not met
Cc1ccc(S(=O)(=O)N2CC(C(=O)O)=CCC2c2ccccc2)cc1 (stereo not drawn) | Condition not met

Exam item: # bool: composite z-score of C=CC[C@]1(C(=O)O)N=C(c2ccc(OCCCO)cc2)O[C@H]1c1ccccc1CN=[N+]=[N-] >= 0.3
Marked response: Condition not met

Exam item: Check CCCC[C@@H]1C[C@H]1[C@@H](NC(=O)c1ccccc1)c1ccc(-c2ccccc2)cc1 too.
Marked response: Condition met

Exam item: Likewise for CC(=O)NCCCC[C@@H]1NC(=O)[C@@H]2C[C@H](C(=O)NCc3ccc(F)cc3)[C@H](c3ccc(O)cc3)N2C1=O ?
Marked response: Condition not met

Exam item: Also, CC(=O)NCCCC[C@@H]1NC(=O)[C@@H]2C[C@H](C(=O)NCCCCCC[N+](C)(C)C)[C@H](c3cccc(OCCO)c3)N2C1=O please.
Marked response: Condition met

Exam item: Try this compound too: Cc1cc(C)c(C(O)C2C=CC3C(=O)NC(=O)C3N2Nc2ccccn2)c(C)c1 (stereo not drawn)
Marked response: Condition met

Hey, just so you know, these numbers are from PubChem BioAssay.
